# System under test: T1, human TfR extracellular domain with N-terminal His tag (human, UniProt P02786 89-760)
# T1 construct: Biotinylated in some assays; also called huTfR; HuTfR
# T1 sequence (P02786 89-760 G142S): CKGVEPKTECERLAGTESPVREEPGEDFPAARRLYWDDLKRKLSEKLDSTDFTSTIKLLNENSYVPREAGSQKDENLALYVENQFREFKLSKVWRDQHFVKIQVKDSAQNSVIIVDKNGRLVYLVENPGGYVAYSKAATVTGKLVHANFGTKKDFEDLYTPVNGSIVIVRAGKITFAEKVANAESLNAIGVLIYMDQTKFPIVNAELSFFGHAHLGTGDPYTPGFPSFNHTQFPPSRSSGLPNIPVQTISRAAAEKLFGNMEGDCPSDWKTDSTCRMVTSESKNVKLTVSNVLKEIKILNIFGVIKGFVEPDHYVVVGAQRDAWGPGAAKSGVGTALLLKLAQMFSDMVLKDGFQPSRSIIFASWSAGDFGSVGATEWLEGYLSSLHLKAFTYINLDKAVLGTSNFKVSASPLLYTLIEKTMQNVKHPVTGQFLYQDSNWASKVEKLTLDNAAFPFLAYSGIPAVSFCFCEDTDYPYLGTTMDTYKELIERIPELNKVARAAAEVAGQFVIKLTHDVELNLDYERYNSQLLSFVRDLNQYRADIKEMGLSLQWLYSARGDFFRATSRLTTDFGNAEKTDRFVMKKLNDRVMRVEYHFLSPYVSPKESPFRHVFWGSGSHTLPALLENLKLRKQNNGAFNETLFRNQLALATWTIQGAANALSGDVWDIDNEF
# Assay method text: SPR, TfR captured by anti-His, Fab injected;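 further: single cycle kinetics with a Fab dilution series, fitted by a one-to-one Langmuir model or a steady state model, KD taken as koff over kon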
Readout name: koff (s⁻¹)
Write the value in s⁻¹ as a bare number.

Sample Hu15G11.v3.Fab (Fab, V domains shown, Fab) VH: EVQLVQSGAEVKKPGASVKVSCKASGYTFTSYWMHWVRQAPGQRLEWMGEINPTNGRTNYIEKFKSRVTITRDTSASTAYMELSSLRSEDTAVYYCARGTRAYHYWGQGTMVTVSS VL: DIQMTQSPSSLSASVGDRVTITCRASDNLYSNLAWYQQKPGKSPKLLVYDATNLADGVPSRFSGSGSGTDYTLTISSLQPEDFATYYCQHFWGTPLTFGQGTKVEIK ; koff observed: 0.00466

Sample Hu7A4.v9.Fab (Fab, V domains shown, Fab) VH: EVQLVQSGAEVKKPGASVKVSCKASGYTFTDYAMHWVRQAPGQGLEWMGGISTYFGRTNYNQKFKGRVTMTRDTSISTAYMELSRLRSDDTAVYYCARGLSGNYVMDYWGQGTTVTVSS VL: DIVMTQSPDSLAVSLGERATINCRASESVDSYGNSFMHWYQQKPGQPPKLLIYRASNLESGVPDRFSGSGSRTDFTLTISSLQAEDVAVYYCQQSNEGPPTFGQGTKLEIK ; koff observed: 0.000686

Sample Hu7A4.v5.Fab (Fab, V domains shown, Fab) VH: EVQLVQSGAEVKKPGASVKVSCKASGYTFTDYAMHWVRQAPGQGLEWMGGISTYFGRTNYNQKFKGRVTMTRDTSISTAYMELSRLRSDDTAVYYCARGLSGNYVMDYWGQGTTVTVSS VL: DIVMTQSPDSLAVSLGERATINCRASESVDSYGNSFMHWYQQKPGQPPKLLIYRASNLESGIPDRFSGSGSGTDFTLTISSLQAEDVAVYYCQQSNEGPPTFGQGTKLEIK ; koff observed: 0.00153

Sample Hu7A4.v12.Fab (Fab, V domains shown, Fab) VH: EVQLVQSGAEVKKPGASVKVSCKGSGYTFTDYAMHWVRQAPGQGLEWMGGISTYFGRTNYNQKFKGRVTMTVDTSISTAYMELSRLRSDDTAVYYCARGLSGNYVMDYWGQGTTVTVSS VL: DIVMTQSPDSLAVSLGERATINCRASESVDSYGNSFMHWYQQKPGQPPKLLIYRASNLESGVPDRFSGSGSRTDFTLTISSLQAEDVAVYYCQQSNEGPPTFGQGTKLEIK ; koff observed: 0.000844

# credit: patent US20180057604A1
